Measured values drawn from patent US20060240424A1 for this set.

- Assayed system: UniProt:Q96P68
- Protocol notes: Cyclic AMP production assay in P2Y15-HEK293 stable transfectants
- Condition description: in the presence of 10 μM forskolin; 30 min; FIG. 2B; read-out: generation of cyclic AMP EC50
Readout kind: EC50
Remember to follow the number with its unit.

**Q:** Any idea what its EC50 is? The compound is Nc1ncnc2c1ncn2[C@@H]1O[C@H](COP(=O)(O)O)[C@@H](O)[C@H]1O [AMP, Adenosine 5′-monophosphate]
**A:** 214 nM

----------
- Assayed system: P2Y15 (Homo sapiens, UniProt Q96P68)
- Protocol notes: Calcium mobilization assay in presence of adenosine receptor antagonists
- Format: cell-based
- Set-up: expressed in transfected cells
- Condition description: Ki for blocking calcium mobilization induced by adenosine, 10 M adenosine (FIG. 4B legend)
- Experimental: Ligand screening was performed in a Ca^2+ flux assay as follows. Stably transfected P2Y15 GPCR-expressing cells were seeded into 96-well plates and incubated overnight at 37° C. in a tissue culture incubator. […] The washed cells were placed in an FDSS6000 functional drug screening system (Hamamatsu Photonics, Hamamatsu, Japan) and changes in cellular fluorescence were measured after adding serial dilutions of potential ligands. […]
Kindly state Ki for each of the entries shown.
Report as a plain number; the unit µM is understood.

**Q:** Which Ki reading was recorded for the molecule Cn1c(=O)c2c(ncn2C)n(C)c1=O ?
**A:** 26.2

**Q:** Moving on to the next molecule: Cn1c(=O)c2[nH]c(-c3ccccc3)nc2n(C)c1=O
**A:** 0.26
